Tested on: DU-145 prostate
ASSAY_COMMENT: NCI-60 one-dose screen, 48 h
CONDITION_CONTEXT: 10 µM unless noted
This is part of a sample that, as a whole, favours compounds with a hit. Of some 83,000 tested, about 20% had one in any assay. Activity calls are given as the source filed them. How the source made its calls: active means growth percent below 10; inactive means the rest.
Parameter call: string, one of active, inactive

{"COMPOUND": "CN(C)CCCn1c2c(c3ccc(N4CCNCC4)cc3c1=O)C(=O)c1ccccc1-2", "SUBJECT_OF_TEST": "DU-145 prostate", "GROUP_LABEL": "active"}
{"COMPOUND": "COc1ccc(C2=C(CN)C(O)NC(=NCC(=O)c3ccc4ccccc4c3)N2)cc1 (configuration not stated)", "SUBJECT_OF_TEST": "DU-145 prostate", "GROUP_LABEL": "inactive"}
{"COMPOUND": "CCCCCCCCCCCCCCCCCCOc1cccc(CC(=O)OCC[N+](CC)(CC)CC)c1", "SUBJECT_OF_TEST": "DU-145 prostate", "GROUP_LABEL": "inactive"}
{"COMPOUND": "Cn1ccnc1CN1CCSC(C(=O)Nc2ccccc2)C1 (configuration not stated)", "SUBJECT_OF_TEST": "DU-145 prostate", "GROUP_LABEL": "inactive"}

Q: Which outcome was assigned to "COc1ccccc1/C=C1\COc2ccc(O)c(O)c2C1=O" in this test?
A: active

Q: Now try "COc1ccc(/C=C/C(=O)c2cc3c(N)c(C(=O)Nc4ccccc4)sc3nc2C)cc1" .
A: inactive

Q: Next record, please: "COc1ccc(-c2cc3cnc4ccccc4c3oc2=O)cc1"
A: inactive

Q: // next record "Cc1ccccc1SSc1ccccc1C"
A: active

Q: Proceed to Cc1ccc2c(c1)C(C)Cc1c(ncnc1-n1cnc3cc(C)ccc31)N2C (configuration not stated)
A: inactive

Q: Let us now turn to "Clc1ccc2c(NCCN3CCN(c4ccnc(N5CCCC5)n4)CC3)ccnc2c1"
A: inactive

Q: How about "CCOC(=O)n1cc(-c2nonc2-c2cn(C)c3ccc(OC)cc23)c2cc(F)ccc21" ?
A: inactive

Q: Next compound up: O=C1OCC2=C1C(c1cccc(C(F)(F)F)c1)c1cc3c(cc1N2CCO)OCCO3 (configuration not stated)
A: inactive

====

System: K-562 leukemia
ASSAY_COMMENT: NCI-60 one-dose screen, 48 h (100 = growth as untreated, 0 = no growth, -100 = all killed)
CONDITION_CONTEXT: 10 µM unless noted
Compounds without any hit were thinned out: in the full panel of roughly 83,000, 20% have a hit.
Please map values of growth to classes as shown: b0 = under 80%, b1 = from 80% up to 90%, b2 = 90% and over

See these solved cases before continuing.
{"COMPOUND": "COc1ccc(/C=N/NC(=O)CN2CCN(c3cc4c(cc3F)c(=O)c(C(=O)O)cn4C3CC3)CC2)cc1O", "GROUP_LABEL": "b1"}
{"COMPOUND": "N=C(N)SCc1c2ccccc2c(CSC(=N)N)c2ccccc12", "GROUP_LABEL": "b0"}
{"COMPOUND": "COc1cc(-c2nc(SCCC(C)C)nc(Nc3ccc(F)cc3)c2C#N)cc(OC)c1OC", "GROUP_LABEL": "b1"}

Q: Class label required: "COc1ccc2c(c1)c(C(=O)c1nc(-c3cn(C)c4ccccc34)no1)cn2C"
A: b0

Q: Next compound: "Cc1ccc(Cl)cc1N1CCN(C(=O)[C@@H]2C[C@@H]2c2ccc(F)cc2)CC1"
A: b0

Q: Do the same for N=C1/C(=C2\NC3C=CC=CC3S2)C(c2ccc(Cl)cc2)C2C(=O)N(c3ccccc3)C(=S)N12 (centres undefined) please
A: b2

====

Test system: MOLT-4 leukemia
ASSAY_COMMENT: NCI-60 one-dose screen, 48 h (100 = growth as untreated, 0 = no growth, -100 = all killed)
CONDITION_CONTEXT: 10 µM unless noted
The panel holds about 83,000 compounds, 20% with a hit somewhere; the sample as a whole holds those more often.
Classes based on growth: category 1: < -20%; category 2: ≥ -20% and < 80%; category 3: ≥ 80%

{"COMPOUND": "O=c1cc(N/N=C/c2ccc(F)cc2)c2cc(Cl)ccc2[nH]1", "GROUP_LABEL": "category 2"}
{"COMPOUND": "CN1CCN(C(=O)OCc2nc3c(N4CCOCC4)nc(Cl)nc3n2C)CC1", "GROUP_LABEL": "category 1"}
{"COMPOUND": "CN(C)CCN1C(=O)c2c(c3c4ccccc4n4c3c3c2c2ccccc2n3C2CC(O)C(O)C4(C)O2)C1=O (centres undefined)", "GROUP_LABEL": "category 2"}
{"COMPOUND": "C=C(C)[C@@H]1CC[C@]2(C(=O)O)CC[C@]3(C)[C@H](CC[C@@H]4[C@@]5(C)CCC(N)C(C)(C)[C@@H]5CC[C@]43C)[C@@H]12 (some centres undefined)", "GROUP_LABEL": "category 2"}
{"COMPOUND": "O=C1c2cccc3cccc(c23)C(=O)N1N1C(=O)c2cccc3c(N4CCNCC4)ccc(c23)C1=O", "GROUP_LABEL": "category 2"}

Q: # bin label for "NCCOCCOc1ccccc1"
A: category 3

Q: Ok, now Nc1ncnc2c1C(c1ccc([N+](=O)[O-])cc1)c1sc3c(F)cccc3c1O2 (centres undefined)
A: category 3

Q: Moving on to "Nc1c(C(=O)Nc2ccncc2)sc2nc3c(cc12)CCCCCCCC3"
A: category 1

====

Test system: K-562 leukemia
ASSAY_COMMENT: NCI-60 one-dose screen, 48 h (100 = growth as untreated, 0 = no growth, -100 = all killed)
CONDITION_CONTEXT: 10 µM unless noted
Method: Cells are grown in 96 well plates and exposed to the test compound for 48 hours. Compounds are tested at a single concentration, which is 10^-5 M for most compounds. The reported endpoint is percent growth (GI% or GIPRCNT), where numbers from 0 - 100% represent growth inhibition, and numbers from -100% - 0 represent cell death. For example, a value of 40 represents 60% growth inhibition. A value of 0 means no net growth occurred over the course of the experiment. […]
Compounds without any hit were thinned out: in the full panel of roughly 83,000, 20% have a hit.
Threshold rule: growth greater than or equal to 10% is 1; below that, -1.

Before answering, review these 5 worked examples.
{"MOLECULE": "COc1ccccc1/C=C1\\COc2ccc(O)c(O)c2C1=O", "SUBJECT_OF_TEST": "K-562 leukemia", "GROUP_LABEL": -1}
{"MOLECULE": "CC[C@]12CN3CCc4c([nH]c5ccccc45)[C@@](C(=O)OC)(c4cc5c(cc4OC)N(C)[C@H]4[C@@](O)(C(=O)OC)[C@H](OC(C)=O)[C@]6(CC)C=CCN7CC[C@]54[C@@H]76)CC(C3)[C@H]1O2 (some centres not stated)", "SUBJECT_OF_TEST": "K-562 leukemia", "GROUP_LABEL": 1}
{"MOLECULE": "COc1ccc(-c2ccc(-c3ccc(C(=N)N)cn3)o2)cc1Cl", "SUBJECT_OF_TEST": "K-562 leukemia", "GROUP_LABEL": -1}
{"MOLECULE": "CCNC(=O)Nc1ncccc1OCc1ccc(F)cc1", "SUBJECT_OF_TEST": "K-562 leukemia", "GROUP_LABEL": 1}
{"MOLECULE": "COc1cc2nc3cc([N+](=O)[O-])ccc3c(NCCNCC(C)(C)O)c2cc1OC", "SUBJECT_OF_TEST": "K-562 leukemia", "GROUP_LABEL": -1}

Q: Entry "[Cu+].[NH-][C@H]1C[N-]C(=O)[C@H]([C@H]2CCN=C(N)N2)[N-]C(=O)/C(=C\NC(N)=O)[N-]C(=O)[C@H](CNC(=O)C[C@@H](N)CCCN)[N-]C(=O)[C@H](CO)[N-]C1=O" : is its growth no less than 10%?
A: 1

Q: Check C=C(C)[C@@H]1CC[C@]2(C(=O)O)CC[C@]3(C)[C@H](CC[C@@H]4[C@@]5(C)CCC(N)C(C)(C)[C@@H]5CC[C@]43C)[C@@H]12 (some centres not stated) too.
A: -1

Q: Repeat for the following molecule: CC1=C2[C@@H](CC1)[C@]1(C)O[C@@](C(C)C)(C[C@H]1OC(=O)CO)[C@H]2OC(=O)C1CC1c1ccccc1 (some centres not stated)
A: 1

Q: Same lookup for "O=C(NCCCN1CCCCC1)c1ccc(-c2nc3ccc4[nH]ncc4c3c3c2CCCC3)cc1" , please.
A: 1

Q: // same read-out, input: O=[N+]([O-])c1ccc(S(=O)Cc2ccccc2)c([N+](=O)[O-])c1 (configuration not stated)
A: 1

====

Test system: NCI-H23 lung
ASSAY_COMMENT: NCI-60 one-dose screen, 48 h (100 = growth as untreated, 0 = no growth, -100 = all killed)
CONDITION_CONTEXT: 10 µM unless noted
The panel holds about 83,000 compounds, 20% with a hit somewhere; the sample as a whole holds those more often.
ENDPOINT_LABEL: growth (%)
Give bare numbers, in %.

{"COMPOUND": "Cc1nn(-c2nc(-c3cc4ccccc4oc3=O)cs2)c(C)c1N=Nc1ccccc1", "SUBJECT_OF_TEST": "NCI-H23 lung", "growth (%)": 98}
{"COMPOUND": "O=C(N/N=C/c1ccc(O)cc1O)c1cccc(Nc2ccnc(C(F)(F)F)c2)c1", "SUBJECT_OF_TEST": "NCI-H23 lung", "growth (%)": 27.5}
{"COMPOUND": "Nc1nc(Nc2cccnc2)sc1C(=O)c1ccccc1F", "SUBJECT_OF_TEST": "NCI-H23 lung", "growth (%)": 37.9}
{"COMPOUND": "CCOC(=O)C(=Cc1ccc(C#N)cc1)C(=O)OCC", "SUBJECT_OF_TEST": "NCI-H23 lung", "growth (%)": 55.5}
{"COMPOUND": "N=C(N)SCc1c2ccccc2c(CSC(=N)N)c2ccccc12", "SUBJECT_OF_TEST": "NCI-H23 lung", "growth (%)": 54.4}

Please state growth for every compound in the list that follows.
1. O=c1c(/C=C/c2ccco2)nnc2sc(Nc3ccc(Cl)cc3)nn12
2. CC1=CC=C(NC(=O)/C=C/c2ccccc2)CC1Nc1nccc(-c2cccnc2)n1 (configuration not stated)
3. COc1ccc(C/C(C)=C(\c2ccc(O)cc2)c2ccc(OCCCN(C)C)cc2)cc1
4. [2H]C([2H])([2H])Oc1cc(F)ccc1/C=C/C(=O)/C=C(/C=C/c1ccc(F)cc1OC([2H])([2H])[2H])OB(F)F

A:
96.2
69
91.8
26.2

# map each compound to its growth
1. C=C(C)[C@@H]1CC[C@]2(C(=O)O)CC[C@]3(C)[C@H](CC[C@@H]4[C@@]5(C)CCC(N)C(C)(C)[C@@H]5CC[C@]43C)[C@@H]12 (some centres not stated)
2. COc1cc(CO)cc2cc3ccccc3nc12
3. Nc1nc2ccccc2c2c(=O)c3ccc(Cl)cc3sc12
4. COc1ccc(Oc2nc(Nc3ccc(N4CCOCC4)cc3)ncc2NC(=O)c2cc(OC)cc(OC)c2)cc1
5. Cc1c(CC(=O)OCCO)cc(-c2ccc(Cl)cc2)n1-c1ccccc1
6. CC1=C2[C@@H](CC1)[C@]1(C)O[C@@](C3CC3)(C[C@H]1OC(=O)CO)[C@H]2OC(=O)/C=C/c1ccccc1
7. CN(C)CCN1C(=O)c2c(c3c4ccccc4n4c3c3c2c2ccccc2n3C2CC(O)C(O)C4(C)O2)C1=O (configuration not stated)
8. N#Cc1ccccc1-c1ccc(Cn2c(-c3cscn3)nc3c(Cl)cccc32)cc1

A:
[81.5, 97.3, 92, 101, 82.3, 103, 23.1, 70.9]

// each compound listed below needs its growth
1. Nc1n[nH]c2cccc(C#Cc3cccc(NC(=O)c4ccc(N5CCOCC5)c(C(F)(F)F)c4)c3)c12
2. COc1ccc(C/C(C)=C(/c2ccc(OCCN3CCCCCC3)cc2)c2ccc(OC(=O)c3ccccc3)cc2)cc1

A:
1. 13.5
2. 109
